target: T1, human MSLN-FL-his protein (human, UniProt Q13421 296-580); test: competitive ELISA; row F8-22.23; also: test concentration or dose not given here
T1 construct: made in HEK293E cells, purified on nickel column; also called hMSLN-FL-his; human MSLN full-length protein; not shown: His tag
T1 sequence (Q13421 other isoform, or with tags, fused parts or gaps): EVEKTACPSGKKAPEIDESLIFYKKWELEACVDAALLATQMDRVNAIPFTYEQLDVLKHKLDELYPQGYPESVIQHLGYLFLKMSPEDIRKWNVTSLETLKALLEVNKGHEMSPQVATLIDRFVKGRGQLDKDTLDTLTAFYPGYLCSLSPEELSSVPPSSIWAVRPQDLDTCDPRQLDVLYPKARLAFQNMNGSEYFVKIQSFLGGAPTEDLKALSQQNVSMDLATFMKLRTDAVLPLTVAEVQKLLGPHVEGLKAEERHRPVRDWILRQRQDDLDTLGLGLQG
TEST READOUT: competition rate (%)
Write it as a number; the unit % goes unstated.

binder="S009-F8-28.23 (antibody, human IgG1, kappa, V domains shown, human-murine chimeric antibody, human IgG1/kappa constant regions) VH: EVQLVESGGDLVKPGGSLKLSCAASGFTFSSYAMSWVRQTPEKRLEWVATISDGGSYTYYPDNVEGRFTISRDNAKNNLYLQMSHLKSEDTAMYYCAGDRGYSYALDYWGQGTSVTVSS VL: NIMMTQSPSSLAVSAGEKVTMSCKSSQSVLYSSNQKNYLAWYQQKPGQSPKLLIYWASTRESGVPDRFTGSGSGTDFTLTISSVQAEDLAVYYCHQYLSSLTFGAGTKLELKR" test_readout="competition rate" endpoint_result=38.6
binder="S009-F8-29.1 (antibody, human IgG1, kappa, V domains shown, human-murine chimeric antibody, human IgG1/kappa constant regions) VH: QVQLQQSGAELARPGASVKMSCKASGYTFISYTMHWVKQRPGQGLEWIGYINPSSGYTKYNQKFKDKATLTADKSSSTAYMQLNSLTSEDSAVYYCARYYSNPDYYAMDYWGQGTSVTVSS VL: QIVLTQSPAIMSASPGEKVTITCSASSSVSYMHWFQQKPGTSPKLWIYSTSNLASGVPARFSGSGSGTSYSLTISRMEAEDAATYYCQQRSSYPLTFGGGTKLELKR" test_readout="competition rate" endpoint_result=88.5
binder="S009-F8-32.3 (antibody, human IgG1, kappa, V domains shown, human-murine chimeric antibody, human IgG1/kappa constant regions) VH: QVQLKESGPGLVAPSQSLSITCTVSGFSLSSYAISWVRQPPGKGLEWLGVIWTGGGTNYNSALKSRLSISKDNSKSQVFLKMNSLQTDDTARFYCARNNYGRLDYAMDYWGQGTSVTVSS VL: DVVMTQTPLSLPVSLGDQASISCRSSQSLVHGNGNTYLHWYLQKPGQSPKLLIYKVSNRFSGVPDRFSGSGSGTDFTLKISRVETEDLGVYFCSQSTHVPFTFGSGTKLEIKR" test_readout="competition rate" endpoint_result=96.6
binder="S009-F8-36.12 (antibody, human IgG1, kappa, V domains shown, human-murine chimeric antibody, human IgG1/kappa constant regions) VH: EVQLQQSGPELVKPGASVKISCKASGYTFTDYYMNWVKQSHGKSLEWIGDINPNNGGTSYNQKFKGKATLTVDKSSSTAYMELRSLTSEDSAVYYCASWGYGSSSRGYFDYWGQGTTLTVSS VL: QIVLSQSPAILSASPGEKVTMTCRASSSVSYMHWYQQKPGSSPKPWIYATSNLASGVPARFSGSGSGTSYSLTISRVEAEDAATYYCQQWSSNPWTFGGGTKLEIKR" test_readout="competition rate" endpoint_result=-3.1
binder="S009-F8-24.14 (antibody, human IgG1, kappa, V domains shown, human-murine chimeric antibody, human IgG1/kappa constant regions) VH: EFQLQQSGPELVKPGASVKISCKASGYSFTDYNMNWVKLSNGKSLEWIGVIIPNYGTSSYNQKFKGKATLTVDQSSSTAYMQLNSLTSEDSAVYYCARWDNYYGSSLDYWGQGTTLTVSS VL: DIVMTQSQKFMSTTVGDRVSITCKASQNVGTAVAWYQQKPGQSPKLLIYSASNRYTGVPDRFTGSGSGTDFILTISNMQSEDLADYFCQQYSSYPLTFGAGTKLELKR" test_readout="competition rate" endpoint_result=80.3
binder="S009-F8-22.23 (antibody, human IgG1, kappa, V domains shown, human-murine chimeric antibody, human IgG1/kappa constant regions) VH: QVQLKQSGPGLVQPSQSLSITCTVSGFSLFSYGVHWVRQSPGKGLEWLGVIWSGGSTDYNAAFISRLSISKDNSKSQVFFKMNSLQADDTAMYYCARNGGSMITTLYYAMDYWGQGTSVTVSS VL: DVVMTQTPLSLPVSLGDQASISCRSSQSLVHSYGNTYLHWYLQKPGQSPKLLIYKVSNRFSGVPDRFSGSGSGTDFTLKISRVEAEDLGVYFCSQSTHIPFTFGGGTKLEIKR" test_readout="competition rate" endpoint_result=95.7

Prompt: If you can, please state the reported competition rate value of S009-F8-33.12 (antibody, human IgG1, kappa, V domains shown, human-murine chimeric antibody, human IgG1/kappa constant regions) VH: EVQLQQSGAELVKPGASVKLSCTASAFNIKDYYMHWVKQRTEQGLEWIGRIDPEDGETKYAPKFQGKATITADTSSNTAYLQLSSLTSEDTAVYYCASGSGTGAMDYWGQGTSVTVSS VL: DIVMTQSQKFMSTSVGDRVSITCKASQNVRTAVGWYQQKPGQSPKALIYLASNRHTGVPDRFTGSGSGTDFTLTISNVQSEDLADYFCLQHWNSPYTFGGGTKLVIKR .
Completion: 96.6

Prompt: If you can, please state the reported competition rate value of S009-F8-8.22 (antibody, human IgG1, kappa, V domains shown, human-murine chimeric antibody, human IgG1/kappa constant regions) VH: EVQLQQSGPELVKPGASVKMSCKASGYTFTDYIIHWVKQSHGKSLEWIAYIFPNNGGTGYNQKFRGKATLTVNKSSSTAYMELRSLTSEDSAVYYCARWRLRQYFDVWGTGTTVTVSS VL: DIVMTQSQKFMSTIVGDRVSITCKASQNVGTAVAWYQQKPGQSPKLLIYSASNRYTGVPDRFTGSGSGTDFTLTISNMQSEDLADYFCQQYSSYPLTFGGGTKLEIKR .
Completion: 96.1
